# measurement-target: recombinant QC enzyme (Homo sapiens)
# Construct: bacterial expression of residues 33-361 of uniprot ID Q16769, fused to a His tag; His tag (cleaved yes); made in house
# Sequence (Q16769 33-361): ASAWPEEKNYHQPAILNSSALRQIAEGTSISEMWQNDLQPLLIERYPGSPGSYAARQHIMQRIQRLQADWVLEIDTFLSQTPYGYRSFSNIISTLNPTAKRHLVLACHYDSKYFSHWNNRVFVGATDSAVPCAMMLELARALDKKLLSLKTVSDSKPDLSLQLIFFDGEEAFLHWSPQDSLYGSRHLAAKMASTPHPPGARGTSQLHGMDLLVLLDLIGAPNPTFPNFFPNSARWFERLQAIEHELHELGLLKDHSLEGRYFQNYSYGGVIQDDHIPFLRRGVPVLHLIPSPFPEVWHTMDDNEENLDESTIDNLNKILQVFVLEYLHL
# test-description: Assay 2 - QC potency, fluorescent enzymatic assay (H-Gln-AMC, coupled pGAPase detection)
# Type: biochemical
# conditions: 1 hour at 37°C
Please respond with reported IC50 for every item in the list.
Expressed in nM, but write only the number.

# IC50 of O=C1OC[C@H](c2ccc(-c3cnn(C(F)(F)F)n3)cc2F)N1c1ccc2[nH]cnc2c1 = 15.1

# IC50 of O=C1OC[C@H](c2ccc(-c3cnn(C4CC(F)(F)C4)c3)cc2F)N1c1ccc2[nH]cnc2c1 = 9.4

# IC50 of O=C1OC[C@H](c2ccc(-c3cnn(C(F)(F)F)c3)cc2F)N1c1ccc2[nH]cnc2c1 = 10.3
